# inhibition in vivo at 30 µmol/kg annotations
- Test system: rats
- MEASUREMENT PROTOCOL: Sodium Iodoacetate-Induced Knee Joint Osteoarthritic Pain Model (hind limb grip force)
- Type: in vivo
- REPORTED CONDITIONS: rat; 30 μmol/kg po single dose; 1 hour after administration; 20 days after sodium iodoacetate; read-out: % effect (% return to normalcy of hind limb grip force)
ENDPOINT: inhibition in vivo at 30 µmol/kg (%)

{"COMPOUND SMILES": "O=C(Nc1cccc2c1C[C@H](O)C2)N[C@@H]1CCOc2cc(OC(F)(F)F)ccc21", "UNIT NAME": "%", "RECORDED NUMBER": 54}
{"COMPOUND SMILES": "CC1(C)C[C@@H](NC(=O)Nc2cccc3c2C[C@H](O)C3)c2ccc(Cl)cc2O1", "UNIT NAME": "%", "RECORDED NUMBER": 52}
{"COMPOUND SMILES": "C[C@]1(CF)C[C@@H](NC(=O)Nc2cccc3c2C[C@H](O)C3)c2ccc(C(F)(F)F)cc2O1", "UNIT NAME": "%", "RECORDED NUMBER": 38}
{"COMPOUND SMILES": "O=C(Nc1cccc2c1C[C@H](O)C2)N[C@@H]1CCc2cc(C(F)(F)F)ccc21", "UNIT NAME": "%", "RECORDED NUMBER": 57}
